The reader will find reported glycan array binding signal (z-score) values listed item by item below.
experimental-target: Neu5Gc(a2-3)Gal(b1-4)GlcNAc
assay-info: glycan array binding signal (z-score within array); higher = stronger binding
test-parameters: glycan notation: IUPAC condensed, linker removed
The entries come from a sample that favours the strongest signals as a whole.
Please respond with just the number, no unit label.

CPA (Cicer arietinum) (protein) MAFSYLNLVLVTLTTLFFLQTTKVKSQKSVSFHITNFTISRPSITLQGTAEFLPNVLLLNDIEHPVFVVGRALYSKPITLWNNKTGKVASFVTSFTFDVQDLKKTVPGHGLVFFLAPSGSEIPFSSDGGNLGVVDGKNAFNRFVGVEFDNFVNSWDPKYSHVGINVNSLISTKTVKWNRVSGELVKVSIVYDSVSTTLTVIVTYKNGQISILSQLVDLKAVLPDTVNIGFSASTTLVSPRQLHNIHSWSFTSTFET :: -0.402

Shifting focus to the binder that follows.
What does the record list as glycan array binding signal (z-score) for MGL6A (Homo sapiens) (protein) MTRTYENFQYLENKVKVQGFKNGPLPLQSLLQRLCSGPCHLLLSLGLGLLLLVIICVVGFQNSKFQRDLVTLRTDFSNFTSNTVAEIQALTSQGSSLEETIASLKAEVEGFKQERQAVHSEMLLRVQQLVQDLKKLTCQVATLNNNGEEASTEGTCCPVNWVEHQDSCYWFSHSGMSWAEAEKYCQLKNAHLVVINSREEQNFVQKYLGSAYTWMGLSDPEGAWKWVDGTDYATGFQNWKPGQPDDWQGHGLGGGEDCAHFHPDGRWNDDVCQRPYHWVCEAGLGQTSQESH ? -0.228
